# systemTested: ATPase family AAA domain-containing protein 5 (Homo sapiens) (UniProt Q96QE3)
# Sequence (Q96QE3 whole entry, looked up, the tested form may be a part): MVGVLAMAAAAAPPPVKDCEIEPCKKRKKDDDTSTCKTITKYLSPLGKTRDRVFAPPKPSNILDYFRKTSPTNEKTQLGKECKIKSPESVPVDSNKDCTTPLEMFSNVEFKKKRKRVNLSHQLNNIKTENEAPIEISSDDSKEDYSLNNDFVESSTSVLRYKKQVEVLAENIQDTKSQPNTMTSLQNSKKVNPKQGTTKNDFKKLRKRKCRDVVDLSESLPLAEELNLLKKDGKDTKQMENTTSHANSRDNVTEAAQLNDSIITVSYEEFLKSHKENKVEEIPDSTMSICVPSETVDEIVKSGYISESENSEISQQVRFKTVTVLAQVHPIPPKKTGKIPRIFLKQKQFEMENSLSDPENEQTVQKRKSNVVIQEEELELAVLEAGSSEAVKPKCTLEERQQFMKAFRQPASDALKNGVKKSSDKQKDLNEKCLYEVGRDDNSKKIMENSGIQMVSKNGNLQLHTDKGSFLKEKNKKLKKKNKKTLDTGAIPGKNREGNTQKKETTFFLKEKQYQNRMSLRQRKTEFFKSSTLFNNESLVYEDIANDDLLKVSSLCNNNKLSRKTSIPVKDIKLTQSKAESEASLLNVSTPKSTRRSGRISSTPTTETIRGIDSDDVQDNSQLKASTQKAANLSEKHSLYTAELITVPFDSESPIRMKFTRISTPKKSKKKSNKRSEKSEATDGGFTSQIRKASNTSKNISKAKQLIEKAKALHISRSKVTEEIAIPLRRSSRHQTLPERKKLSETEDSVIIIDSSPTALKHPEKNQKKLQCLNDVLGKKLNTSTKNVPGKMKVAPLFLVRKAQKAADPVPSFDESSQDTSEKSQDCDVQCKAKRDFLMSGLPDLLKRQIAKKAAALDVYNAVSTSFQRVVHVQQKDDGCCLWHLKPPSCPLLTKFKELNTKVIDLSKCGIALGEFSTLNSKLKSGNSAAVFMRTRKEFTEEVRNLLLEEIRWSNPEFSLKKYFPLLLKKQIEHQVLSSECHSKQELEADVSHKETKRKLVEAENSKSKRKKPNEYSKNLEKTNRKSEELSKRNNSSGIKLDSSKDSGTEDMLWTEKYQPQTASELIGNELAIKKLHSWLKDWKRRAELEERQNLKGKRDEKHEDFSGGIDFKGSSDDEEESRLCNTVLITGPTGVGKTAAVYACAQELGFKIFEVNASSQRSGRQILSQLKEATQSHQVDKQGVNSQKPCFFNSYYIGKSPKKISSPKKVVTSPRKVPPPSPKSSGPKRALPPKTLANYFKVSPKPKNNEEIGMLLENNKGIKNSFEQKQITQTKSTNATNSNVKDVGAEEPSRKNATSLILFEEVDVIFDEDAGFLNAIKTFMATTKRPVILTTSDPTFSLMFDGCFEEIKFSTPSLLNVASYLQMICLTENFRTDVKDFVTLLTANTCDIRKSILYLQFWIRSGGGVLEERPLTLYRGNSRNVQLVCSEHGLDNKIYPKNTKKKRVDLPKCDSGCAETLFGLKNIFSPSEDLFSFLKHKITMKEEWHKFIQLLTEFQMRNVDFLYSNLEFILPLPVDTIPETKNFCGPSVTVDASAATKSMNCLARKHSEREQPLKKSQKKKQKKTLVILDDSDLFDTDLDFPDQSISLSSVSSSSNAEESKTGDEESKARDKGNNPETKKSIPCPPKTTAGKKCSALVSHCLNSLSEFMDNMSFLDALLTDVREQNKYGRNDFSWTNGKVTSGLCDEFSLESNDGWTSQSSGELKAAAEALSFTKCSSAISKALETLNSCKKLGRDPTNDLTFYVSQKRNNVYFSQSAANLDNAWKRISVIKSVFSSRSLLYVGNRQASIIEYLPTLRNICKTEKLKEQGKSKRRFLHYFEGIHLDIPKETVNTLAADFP
# assayOverview: Validation screen for small molecules that inhibit ELG1-dependent DNA repair in human embryonic kidney (HEK293T) cells expressing luciferase-tagged ELG1 (AID 493107); further: nearly all actives have a fitted effect of over 70% in size
# runConditions: HEK293T ELG1-luciferase level, luminescence, 5-fluorouridine co-treatment, 16 h; series mostly up to 46.1 µM
Inconclusive results are not listed. Activity calls are given as the source filed them. The call rests on the fitted dose curve; in most records, active means well fitted inhibition curve with a large enough effect; inconclusive means small, poorly fitted or top-dose-only effect, or effect the other way; inactive means flat fitted curve, though single readings scatter.
Just give me one of these, please: true for active, false for inactive

- COC(=O)[C@@H](N)Cc1ccc(O)c(O)c1: false
- CC(N=C(NC#N)Nc1ccncc1)C(C)(C)C (stereo not drawn): false

[Q] Short answer needed: outcome of this test for `O=C(O)CP(=O)(O)O` ?
[A] false

[Q] Can you handle `COCC(=O)O[C@]1(CCN(C)CCCc2nc3ccccc3[nH]2)CCc2cc(F)ccc2[C@@H]1C(C)C` next?
[A] true

[Q] Can you handle `CN(C)CC/C=C1\c2ccccc2COc2ccccc21` next?
[A] false

[Q] Can you handle `CC(=O)OCC1=C(C(=O)O)N2C(=O)[C@@H](NC(=O)Cc3cccs3)[C@H]2SC1` next?
[A] false

[Q] Can you handle `CCN(CC)CCNC(=O)c1cc(S(C)(=O)=O)ccc1OC` next?
[A] false

[Q] Can you handle `CCN(CC)CC(=O)Nc1c(C)cccc1C` next?
[A] false

----------
Each entry below carries its recorded activation.
# systemTested: Glucocorticoid receptor (Homo sapiens)
# assayOverview: qHTS assay for small molecule agonists of glucocorticoid receptor signaling (AID 588532);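 further: 100% = dexamethasone at 0.1 µM and 0% = DMSO only wells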
# runConditions: HeLa MMTV-bla, beta-lactamase ratio, agonist, 18 h; active compounds read high, percent of dexamethasone control, DMSO zero
Inconclusive results are not listed.
Give your result in % as a bare value.

Some compounds with known activation results, for comparison:
• COC(=O)[C@H]1[C@H]2C[C@@H]3c4[nH]c5cc(OC)ccc5c4CCN3C[C@H]2C[C@@H](OC(=O)c2cc(OC)c(OC)c(OC)c2)[C@@H]1OC = 4.47
• CC(=O)[C@@]1(O)CC[C@H]2[C@@H]3CCC4=CC(=O)CC[C@]4(C)[C@H]3CC[C@@]21C = 1.8
• COc1ccc(CN(CCN(C)C)c2ccccn2)cc1 = -0.651
• C[C@]12CCC(=O)C=C1CC[C@@H]1[C@@H]2C(=O)C[C@@]2(C)[C@H]1CC[C@]2(O)C(=O)CO = -0.667
• CCCCNC(=O)NS(=O)(=O)c1ccc(C)cc1 = -10.2
• COc1cc(Cc2cnc(N)nc2N)cc(OC)c1OC = -1.11

Proceed to the following item.
[Q] Provide the documented activation with Glucocorticoid receptor (Homo sapiens) as the system for `CC(C)(Oc1ccc(CCNC(=O)c2ccc(Cl)cc2)cc1)C(=O)O`
[A] -5.13

----------
# systemTested: Cytochrome P450 2C9 (Homo sapiens)
# assayOverview: Cytochrome P450 family 2 subfamily C member 9 (CYP2C9) small molecule antagonists: luciferase biochemical (cell-free) qHTS assay (AID 1645842); further: nearly all actives have a fitted effect of over 55% in size
# runConditions: P450-Glo CYP2C9 enzyme assay, luciferin luminescence; series mostly up to 57.4 µM
Results filed as inconclusive are left out. Active and inactive are the calls of the source. The call rests on the fitted dose curve; in most records, active means well fitted inhibition curve with a large enough effect in the repeat runs; inconclusive means weak or mixed curves; inactive means no such curve, though single readings can be large or run the other way.
Just give me one of these, please: active, inactive

Past entries and their recorded results:
* COc1ccc2c(c1OC)C(=O)O[C@@H]2[C@H]1c2c(cc3c(c2OC)OCO3)CCN1C | active
* COc1ccc(CN(CCN(C)C)c2ccccn2)cc1 | inactive
* CN(C)C(=O)Oc1ccc[n+](C)c1 | inactive
* CO[C@@]1(NC(=O)CSCC#N)C(=O)N2C(C(=O)O)=C(CSc3nnnn3C)CS[C@@H]21 | inactive
* CN1C(=O)CC[C@H]1c1cccnc1 | inactive
* C#CCN(C)CCCOc1ccc(Cl)cc1Cl | active
* CC1=NS(=O)(=O)c2cc(Cl)ccc2N1 | inactive
* COC(=O)[C@@H](N)Cc1ccc(O)c(O)c1 | inactive

# ---- query compound ----
[Q] Short answer needed: outcome of this test for `CN(C)C/C=C(/c1ccc(Br)cc1)c1cccnc1` ?
[A] inactive

The measured values listed here are drawn from PubChem BioAssay (NCATS).
